Target: T1, cell-surface expressed αvβ6 on human cells (5637 bladder cancer cells, HaCaT keratinocytes, BxPC-3 pancreatic … (human, UniProt P06756 31-1048; P18564 22-788)
T1 chain 1: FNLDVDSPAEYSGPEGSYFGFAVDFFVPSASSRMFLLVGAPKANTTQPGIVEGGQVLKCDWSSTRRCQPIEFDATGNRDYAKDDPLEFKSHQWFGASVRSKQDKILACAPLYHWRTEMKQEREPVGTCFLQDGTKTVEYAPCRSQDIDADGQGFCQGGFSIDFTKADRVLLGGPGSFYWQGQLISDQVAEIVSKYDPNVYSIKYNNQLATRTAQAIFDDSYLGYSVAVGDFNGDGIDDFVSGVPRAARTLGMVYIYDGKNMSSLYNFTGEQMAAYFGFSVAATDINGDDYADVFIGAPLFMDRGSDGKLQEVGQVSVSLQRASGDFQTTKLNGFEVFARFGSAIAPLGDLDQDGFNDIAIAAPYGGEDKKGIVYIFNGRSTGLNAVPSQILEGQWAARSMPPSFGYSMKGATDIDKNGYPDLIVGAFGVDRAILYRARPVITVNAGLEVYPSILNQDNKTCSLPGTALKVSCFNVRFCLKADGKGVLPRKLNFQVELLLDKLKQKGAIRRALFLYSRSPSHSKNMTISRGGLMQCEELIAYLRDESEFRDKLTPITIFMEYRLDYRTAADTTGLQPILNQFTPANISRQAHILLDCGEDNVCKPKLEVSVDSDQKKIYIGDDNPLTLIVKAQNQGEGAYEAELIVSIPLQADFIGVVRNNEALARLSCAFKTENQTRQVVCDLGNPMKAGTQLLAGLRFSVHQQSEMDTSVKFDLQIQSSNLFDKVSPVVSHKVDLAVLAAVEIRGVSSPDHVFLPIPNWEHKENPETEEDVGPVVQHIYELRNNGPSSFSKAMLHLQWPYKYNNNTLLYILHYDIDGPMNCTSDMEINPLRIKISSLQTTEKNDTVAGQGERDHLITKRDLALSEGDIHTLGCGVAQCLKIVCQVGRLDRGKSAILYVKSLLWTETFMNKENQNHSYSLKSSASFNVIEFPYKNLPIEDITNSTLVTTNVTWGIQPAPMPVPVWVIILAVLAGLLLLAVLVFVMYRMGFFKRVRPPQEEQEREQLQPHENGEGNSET
T1 chain 2: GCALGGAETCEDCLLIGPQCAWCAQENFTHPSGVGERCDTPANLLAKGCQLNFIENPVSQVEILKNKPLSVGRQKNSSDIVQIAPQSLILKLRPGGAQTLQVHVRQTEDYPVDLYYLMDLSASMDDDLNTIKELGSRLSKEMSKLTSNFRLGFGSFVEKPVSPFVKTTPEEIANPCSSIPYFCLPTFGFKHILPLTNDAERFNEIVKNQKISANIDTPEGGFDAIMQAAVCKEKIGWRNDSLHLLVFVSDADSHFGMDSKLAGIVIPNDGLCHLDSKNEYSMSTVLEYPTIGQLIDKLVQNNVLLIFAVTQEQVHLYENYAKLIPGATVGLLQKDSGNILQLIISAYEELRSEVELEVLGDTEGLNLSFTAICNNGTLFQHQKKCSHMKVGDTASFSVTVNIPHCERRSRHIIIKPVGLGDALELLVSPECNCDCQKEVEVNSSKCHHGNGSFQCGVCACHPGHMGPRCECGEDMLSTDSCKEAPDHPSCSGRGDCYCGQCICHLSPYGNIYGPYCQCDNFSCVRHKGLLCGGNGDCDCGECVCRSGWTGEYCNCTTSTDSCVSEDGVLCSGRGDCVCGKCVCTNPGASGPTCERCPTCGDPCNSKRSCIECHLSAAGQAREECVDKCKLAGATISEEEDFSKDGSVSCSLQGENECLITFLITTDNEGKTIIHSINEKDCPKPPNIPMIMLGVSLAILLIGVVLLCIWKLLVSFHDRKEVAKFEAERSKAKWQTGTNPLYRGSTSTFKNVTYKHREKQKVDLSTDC
Test: FACS
Bridges are numbered along the chain shown (N, C = ends). [ ]: non-standard residue; d: D form. Lys(N3) = [N-]=[N+]=NCCCC[C@H](N)C(=O)O; Pra = C#CC[C@H](N)C(=O)O
endpoint.name: pIC50
Entry type: numeric. Quantity: pIC50, the -log10 of concentration in molar units.

Q: Request the reported pIC50 associated with FETLRGDLRILSILRHQNLLKELQD [peptide 4]
A: 7.77

Q: Next: FETLRGDERILSILRHQNLLKELQD [peptide 1 (CgA-derived peptide, residues 39-63), synthetic]
A: 6.19

Q: Ac-FETLRGDLRILSILR[Pra]QNL[Lys(N3)]KELQD-NH2 (triazole 16-20) [peptide 5 (triazole-stapled CgA39-63-derived peptide)] , same question.
A: 8.44
